target: human GLP-1 receptor (human, UniProt P43220 24-463); experiment: cell-based or functional assay
Positions of bridges follow the written chain, without caps; N, C: chain ends. Non-standard residues stand in square brackets, D forms with d. No end group written: not given here. *: point of attachment. Acetyl(2-(4-imidazolyl)) = O=C(Cc1c[nH]cn1)*; Aib = CC(C)(N)C(=O)O
Here the recorded In vitro activity relative to native peptide (%), vs. GLP-1 (cAMP EC50) is given for each entry.
result-type: In vitro activity relative to native peptide (%), vs. GLP-1 (cAMP EC50)

binder="{Acetyl(2-(4-imidazolyl))}-[Aib]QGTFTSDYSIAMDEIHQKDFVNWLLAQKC (bridge 15-19) [trigonal agonist of SEQ ID NO: 92]" inequality_operator== obs_value=0.8
binder="{Acetyl(2-(4-imidazolyl))}-[Aib]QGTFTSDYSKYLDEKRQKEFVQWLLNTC (bridge 15-19) [trigonal agonist of SEQ ID NO: 81]" inequality_operator== obs_value=7.8
binder="{Acetyl(2-(4-imidazolyl))}-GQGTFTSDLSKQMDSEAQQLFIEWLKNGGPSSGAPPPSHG [trigonal agonist of SEQ ID NO: 16]" inequality_operator== obs_value=2.1
binder="Y[Aib]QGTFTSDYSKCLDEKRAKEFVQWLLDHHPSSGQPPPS (bridge 16-20) [trigonal agonist of SEQ ID NO: 22]" inequality_operator== obs_value=20.1
binder="{Acetyl(2-(4-imidazolyl))}-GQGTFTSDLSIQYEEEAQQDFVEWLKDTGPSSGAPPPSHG [trigonal agonist of SEQ ID NO: 20]" inequality_operator=< obs_value=0.1
binder="H[Aib]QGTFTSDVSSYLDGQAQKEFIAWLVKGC [trigonal agonist of SEQ ID NO: 2]" inequality_operator== obs_value=5.9
binder="H[Aib]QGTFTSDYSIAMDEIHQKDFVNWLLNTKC (bridge 16-20) [trigonal agonist of SEQ ID NO: 35]" inequality_operator== obs_value=7.5
binder="Y[Aib]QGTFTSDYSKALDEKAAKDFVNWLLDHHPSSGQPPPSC (bridge 16-20) [trigonal agonist of SEQ ID NO: 99]" inequality_operator== obs_value=20.9
binder="Y[Aib]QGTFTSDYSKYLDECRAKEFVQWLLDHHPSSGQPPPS (bridge 16-20) [trigonal agonist of SEQ ID NO: 21]" inequality_operator== obs_value=17.8
binder="H[Aib]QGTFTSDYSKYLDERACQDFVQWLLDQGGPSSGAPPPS [trigonal agonist of SEQ ID NO: 27]" inequality_operator== obs_value=83.1
binder="Y[Aib]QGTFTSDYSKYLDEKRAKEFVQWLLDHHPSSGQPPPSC (bridge 16-20) [trigonal agonist of SEQ ID NO: 42]" inequality_operator== obs_value=33.9
binder="Y[Aib]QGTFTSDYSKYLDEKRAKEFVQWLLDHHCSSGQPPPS (bridge 16-20) [trigonal agonist of SEQ ID NO: 43]" inequality_operator== obs_value=12.6
binder="H[Aib]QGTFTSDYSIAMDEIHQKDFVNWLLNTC (bridge 16-20) [trigonal agonist of SEQ ID NO: 57]" inequality_operator== obs_value=11.7
binder="{Acetyl(2-(4-imidazolyl))}-[Aib]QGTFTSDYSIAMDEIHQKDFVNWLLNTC (bridge 15-19) [trigonal agonist of SEQ ID NO: 87]" inequality_operator== obs_value=0.9
binder="{Acetyl(2-(4-imidazolyl))}-[Aib]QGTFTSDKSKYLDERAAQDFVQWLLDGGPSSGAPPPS [trigonal agonist of SEQ ID NO: 62]" inequality_operator== obs_value=5.2
binder="H[Aib]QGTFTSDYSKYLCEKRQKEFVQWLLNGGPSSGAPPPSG (bridge 16-20) [trigonal agonist of SEQ ID NO: 36]" inequality_operator== obs_value=37.4
binder="{Acetyl(2-(4-imidazolyl))}-[Aib]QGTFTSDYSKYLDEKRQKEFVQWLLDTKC (bridge 15-19) [trigonal agonist of SEQ ID NO: 89]" inequality_operator== obs_value=7.1
binder="Y[Aib]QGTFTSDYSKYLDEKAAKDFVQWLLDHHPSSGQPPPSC (bridge 16-20) [trigonal agonist of SEQ ID NO: 77]" inequality_operator== obs_value=38.7
binder="H[Aib]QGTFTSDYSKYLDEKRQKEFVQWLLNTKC (bridge 16-20) [trigonal agonist of SEQ ID NO: 58]" inequality_operator== obs_value=39.1
binder="Y[Aib]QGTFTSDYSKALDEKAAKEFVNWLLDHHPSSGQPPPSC (bridge 16-20) [trigonal agonist of SEQ ID NO: 98]" inequality_operator== obs_value=28.1
binder="H[Aib]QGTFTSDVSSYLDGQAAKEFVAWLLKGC [trigonal agonist of SEQ ID NO: 6]" inequality_operator== obs_value=17
binder="H[Aib]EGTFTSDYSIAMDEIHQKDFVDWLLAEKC (bridge 16-20) [trigonal agonist of SEQ ID NO: 80]" inequality_operator== obs_value=8.1
